assay: ATP-evoked calcium inhibition in parental CHO, counter-screen for OX1R antagonist project, cell-based, fluorescence, CHO-K1, triplicate (AID 492965); conditions: parental CHO-K1, ATP-induced calcium, Fluo-8 fluorescence; at 5.6 µM; stronger effect = higher value;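 also: 0% = ATP challenge with DMSO and 100% = DMSO without ATP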
About 100 (9.1%) of roughly 1,100 compounds were called active. Not all results are given here.
Each entry below carries its recorded inhibition.

{"compound": "N#C/C(=C/c1ccc(N2CCCCC2)o1)C(=O)NCCc1c[nH]c2ccccc12", "inhibition, %": 31.6}
{"compound": "c1coc(CNc2ncnc3ccccc23)c1", "inhibition, %": 26.1}
{"compound": "O=C(N/N=C/c1c(Cl)[nH]c2ccccc12)c1sc2ccccc2c1Cl", "inhibition, %": 10.8}
{"compound": "N#Cc1nc(-c2cccc3ccccc23)oc1N", "inhibition, %": -11.2}
{"compound": "O=C(OC1CCOC1=O)c1ccc(-c2nc3ccccc3s2)s1 (configuration not stated)", "inhibition, %": 10.7}
{"compound": "CC(Oc1ccc2ccccc2c1)C(=O)NNC(=S)NC(=O)c1ccco1 (configuration not stated)", "inhibition, %": -8.71}
{"compound": "O=C(CCCN1CCc2[nH]c3ccc(F)cc3c2C1)c1ccc(F)cc1", "inhibition, %": 26.8}
{"compound": "COC(=O)c1sccc1NC(=O)CSc1ccccc1NS(=O)(=O)c1cc(Cl)ccc1Cl", "inhibition, %": 8.36}
{"compound": "COc1ccc2sc(-c3ccc(N(C)C)cc3)c(C#CCO)c2c1", "inhibition, %": -6.95}
{"compound": "O=C(Nc1cccc2cccnc12)c1cccc(N2C(=O)CCC2=O)c1", "inhibition, %": -5.5}
{"compound": "Cc1cc(-c2ccc(C)c(S(=O)(=O)NC(C)Cc3ccco3)c2)on1 (configuration not stated)", "inhibition, %": -8.08}
{"compound": "C=CCn1c(SCC(=O)Nc2nc3ccccc3s2)nnc1-c1ccccc1O", "inhibition, %": -4.55}
{"compound": "CCC(=O)N(C)C(c1ccccc1Cl)c1nnnn1-c1c(C)cccc1C (configuration not stated)", "inhibition, %": -6.17}
{"compound": "O=C1c2ccccc2S(=O)(=O)N1CC(O)Cn1c2ccccc2c2ccccc21 (configuration not stated)", "inhibition, %": 4.28}
{"compound": "CCOc1cc(/C=C(\\C#N)c2nc(-c3cccs3)c(NC(C)=O)s2)ccc1O", "inhibition, %": 14.1}
{"compound": "COc1ccccc1CNC(=O)C1CCCN(S(=O)(=O)c2cccc3cccnc23)C1 (configuration not stated)", "inhibition, %": -8.22}
{"compound": "CCc1ccccc1OCC(=O)Nc1ccc(C)c(S(=O)(=O)N2CCCCCC2)c1", "inhibition, %": 2.45}
{"compound": "CC(C)(C)NC(=O)CN(C(=O)c1csnn1)c1ccccc1-c1ccccc1", "inhibition, %": -0.67}
{"compound": "CCCc1nc2c(c(=O)c3ccccc3n2C)c(=O)n1C1CCCCCC1", "inhibition, %": -3.88}
{"compound": "CCOc1ccc(CCNC(=O)C(CC)n2nc(C)n3c(cc4sccc43)c2=O)cc1OCC (configuration not stated)", "inhibition, %": -2.6}
{"compound": "S=C(NCc1ccc(Cl)cc1)NC12CC3CC(CC(C3)C1)C2", "inhibition, %": 14}
{"compound": "CC1(C)C2CC=C(/C=N/NC(=O)C3CC3)C1C2 (configuration not stated)", "inhibition, %": -15}
